# System Tested: HLA-B*0702 (human)
# Experiment: iTopia affinity
Property Name: ED50 (µM)
Number in µM, nothing else.

Below, 4 binders whose answers are already recorded.
TPPEYKALF [cdr2 418-426 TPPEYKALF] ... 100
LVLKENSEL [cdr2 225-233 LVLKENSEL] ... 34
LAAELGKTL [cdr2 30-38 LAAELGKTL] ... 33
AYRARALEL [cdr2 242-250 AYRARALEL] ... 23

Task: # query: ED50 of entry RARALELEA [cdr2 244-252 RARALELEA]
Output: 14

Task: Next up: RTKYRSLSS [cdr2 444-452 RTKYRSLSS]
Output: 73

Task: Next up: AVQTSRAAA [cdr2 378-386 AVQTSRAAA]
Output: 11

Task: Next up: AVKQRGISL [cdr2 337-345 AVKQRGISL]
Output: 2.4

Origin of the recorded values: patent US20090208538A1
